Measured values drawn from PubChem BioAssay (NCATS) for this set.

Experiment: qHTS drug screen for cell cycle checkpoint inhibitors in PARPi-resistant BRCA-mutant ovarian cancer cell lines. (AID 1963452)
Settings: PEO1/OlaR viability, CellTiter-Glo luminescence, 96 h; measured here: PEO1 parental Z-AUC; stronger effect = lower value
Below is a list of entries, each paired with its recorded Z-AUC value.
The answer should be a number; do not append a unit.

| Compound | Z-AUC |
| --- | --- |
| C[C@H]1O[C@H](O[C@H]2[C@H](O)[C@@H](O)[C@@H](O[C@H]3[C@H](O)[C@@H](O)C(O)O[C@@H]3CO)O[C@@H]2CO)[C@H](O)[C@@H](O)[C@@H]1N[C@H]1C=C(CO)[C@@H](O)[C@H](O)[C@H]1O (stereo partly drawn) | 1.06 |
| Cc1nc2cccc(N)c2c(=O)n1C1CCC(=O)NC1=O (stereo not drawn) | 1.14 |
| CCn1c(=O)c(-c2ccc(-c3cncc(C)n3)cc2Cl)cc2cnc(NCCC3CCN(C)CC3)nc21 | 0.823 |
| CO[C@H]1/C=C/O[C@@]2(C)Oc3c(C)c(O)c4c(O)c(c5c(nc6cc(C)ccn65)c4c3C2=O)NC(=O)/C(C)=C\C=C\[C@H](C)[C@H](O)[C@@H](C)[C@@H](O)[C@@H](C)[C@H](OC(C)=O)[C@@H]1C | -1.19 |
| CC1(C)S[C@H]2[C@H](NC(=O)[C@@H](N)c3ccc(O)cc3)C(=O)N2[C@H]1C(=O)O | 0.11 |

Sure, the documented Z-AUC for Cc1onc(-c2ccc(F)cc2)c1COc1ccc(C(=O)N2CCS(=O)(=O)CC2)cn1 is 1.31

Input CN1C(=O)[C@@H](NC(=O)c2cc(Cc3ccccc3)on2)COc2ccccc21 . Output Z-AUC: 0.721

Memo: Cc1ccc(-c2nc(N)nc3c2nnn3Cc2cccc(CO[C@H]3CCOC3)n2)o1 , reported Z-AUC: -0.982

----------
Listing: activity change, negative = inhibition of selected compounds
Test: qHTS Assay for Lipid Storage Modulators (AID 1519); as to activity change, negative = inhibition: % is scaled to controls: 0 for no effect and ±100 for the full control effect
Conditions: Drosophila S3 cells, BODIPY lipid droplet/cell ratio, laser cytometry; at 57.5 µM (top of the series); cells loaded with oleic acid
Inconclusive results are not listed. Calls of active or inactive are those of the source. The call rests on the fitted dose curve.

Some compounds with recorded activity change, negative = inhibition:
| Structure as smiles | activity change, negative = inhibition |
| --- | --- |
| CC(C)NC(=O)N1CC2(CCN(C(=O)c3ccco3)CC2)C1 | -0.739% (inactive) |
| c1cncc(CNc2ncnc3ccc(-c4cccnc4)cc23)c1 | 7.28% (inactive) |
| COc1ccc(C(=O)N2CCC3(CCN(C)CC3)CC2)cc1 | 3.67% (inactive) |

Note to self: activity change, negative = inhibition recorded for COc1ncc2nc(-c3cccs3)c(=O)n(CCc3ccccc3)c2n1 was 2.39% (inactive)

activity change, negative = inhibition reported for this compound COc1ccc(-c2nc3cnc(N4CCNCC4)nc3n(Cc3ccc(F)cc3)c2=O)cc1 : 4.56% (inactive)

The compound listed as COCCn1c(=O)c(CCc2ccccc2)nc2cnc(N3CCN(C)CC3)nc21 has a reported activity change, negative = inhibition of 5.96% (inactive)

Reported activity change, negative = inhibition of Cc1ccccc1-c1nccc(NCc2cccs2)n1 : 6.73% (inactive)

----------
Assay: qHTS Assay for Lipid Storage Modulators (AID 1519)
Details: Drosophila S3 cells, BODIPY lipid droplet/cell ratio, laser cytometry; measured here: cell count channel max response; cells loaded with oleic acid
Results filed as inconclusive are left out.
Measurement type: max response (%)
// return numeric value only (unit: %, not printed)

| Structure as smiles | Unit abbreviation | Recorded result |
| --- | --- | --- |
| COc1ccc(-n2c(=O)c(-c3cccs3)nc3cncnc32)cc1 | % | 28.9 |
| CCNc1ncc2nc(-c3ccc(OC)cc3)c(=O)n(CCOC)c2n1 | % | 20.7 |

The compound listed as CS(=O)(=O)N1CCC2(CCCN(c3ccncc3)C2)CC1 shows max response equal to 17.1

// CCNc1ncc2nc(-c3cccs3)c(=O)n(C)c2n1 : max response value = 3.66

Given item O=C(Nc1cccc(F)c1)N1CC2(CCN(C(=O)c3csnn3)CC2)C1 , the value recorded as its max response is 2.11

Form field max response, entry COCCn1c(=O)c(-c2cccc(C#N)c2)nc2cnc(N(C)C)nc21 : 16.6

Reported max response ( COCCn1c(=O)c(-c2ccc(Cl)cc2)nc2cnc(OCc3ccccc3)nc21 ) = -2.09
